Target: Metabotropic glutamate receptor 1 (Rattus norvegicus, UniProt P23385)
Sequence (P23385 whole entry): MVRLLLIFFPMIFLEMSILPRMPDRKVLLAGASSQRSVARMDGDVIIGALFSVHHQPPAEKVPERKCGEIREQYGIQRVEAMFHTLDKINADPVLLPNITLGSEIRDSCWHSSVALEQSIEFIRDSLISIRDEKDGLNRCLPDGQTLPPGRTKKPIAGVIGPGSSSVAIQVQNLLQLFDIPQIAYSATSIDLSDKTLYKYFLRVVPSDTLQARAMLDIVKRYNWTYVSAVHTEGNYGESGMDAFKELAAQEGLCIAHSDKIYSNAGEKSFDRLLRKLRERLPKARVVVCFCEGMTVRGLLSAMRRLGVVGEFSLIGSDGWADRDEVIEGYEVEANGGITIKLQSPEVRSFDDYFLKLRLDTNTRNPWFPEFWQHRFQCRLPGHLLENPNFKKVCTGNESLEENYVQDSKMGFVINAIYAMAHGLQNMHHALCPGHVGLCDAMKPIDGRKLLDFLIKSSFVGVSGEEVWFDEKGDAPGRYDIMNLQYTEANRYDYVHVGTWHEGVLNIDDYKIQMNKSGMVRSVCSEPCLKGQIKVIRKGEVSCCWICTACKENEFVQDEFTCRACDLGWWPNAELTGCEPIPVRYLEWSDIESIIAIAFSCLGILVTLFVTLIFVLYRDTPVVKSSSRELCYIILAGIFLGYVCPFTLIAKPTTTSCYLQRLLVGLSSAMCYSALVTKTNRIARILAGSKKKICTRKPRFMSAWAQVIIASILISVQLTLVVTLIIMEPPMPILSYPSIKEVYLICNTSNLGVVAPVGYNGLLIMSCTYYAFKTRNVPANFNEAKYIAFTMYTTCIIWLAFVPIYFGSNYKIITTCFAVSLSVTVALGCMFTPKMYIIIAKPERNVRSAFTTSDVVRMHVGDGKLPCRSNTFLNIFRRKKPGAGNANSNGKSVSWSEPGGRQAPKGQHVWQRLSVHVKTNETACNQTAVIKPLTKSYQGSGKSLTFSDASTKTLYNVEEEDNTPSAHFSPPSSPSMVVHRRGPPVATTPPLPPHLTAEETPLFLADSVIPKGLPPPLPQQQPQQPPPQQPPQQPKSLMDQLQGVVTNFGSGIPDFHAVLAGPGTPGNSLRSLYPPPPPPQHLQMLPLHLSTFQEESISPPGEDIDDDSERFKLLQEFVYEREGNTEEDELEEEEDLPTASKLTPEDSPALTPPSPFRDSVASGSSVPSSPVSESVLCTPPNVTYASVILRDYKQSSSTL
Test: In vitro inhibition of rat metabotropic glutamate receptor 1 in CHO cells using the CDP-DAG accumulation method.
Assay type: cell-based
Binning of IC50 into classes: low bracket: < 300 nM; middle bracket: ≥ 300 nM and < 2000 nM; high bracket: ≥ 2000 nM

The following molecules have reported results that may help.
1. Cc1c(C(=O)OC(C)C(C)(C)C)c[nH]c1C(=O)OC(C)CN(C)C (stereo unspecified) | middle bracket
2. CCCOC(=O)c1c(C)c(C(=O)OC(C)(C)C)c(C)n1CCCO | high bracket
3. Cc1c(C(=O)OC(C)C(C)(C)C)c[nH]c1C(=O)Oc1c(F)c(F)c(F)c(F)c1F (stereo unspecified) | low bracket
4. CCCOC(=O)c1[nH]c(C(=O)OC)c(C(=O)OC(C)(C)C)c1C | high bracket

State the class of the molecule shown: CCN1CCC(OC(=O)c2[nH]cc(C(=O)OC(C)C(C)(C)C)c2C)C1 (stereo unspecified) low bracket

Same for "CCOC(=O)c1[nH]cc(C(=O)OC(C)(C)C)c1C" middle bracket

Same for Cc1c(C(=O)OC(C)C(C)(C)C)c[nH]c1C(=O)Oc1cccnc1 (stereo unspecified) middle bracket

Same for "CCCOC(=O)c1[nH]c(CO)c(C(=O)OC(C)(C)C)c1C" high bracket

Same for "CCCOC(=O)c1[nH]c(C(=O)NCC2CC2)c(C(=O)OC(C)(C)C)c1C" high bracket

Same for "Cc1c(C(=O)OC(C)(C)C)c[nH]c1C(=O)OC(C)(C)C" low bracket
